target under test: RANTES (E66S mutant of human RANTES) (human)
experimental protocol: NMR titration
Square brackets hold non-standard residues; d marks the D form. Ends that are not written are not given here. sY = N[C@@H](Cc1ccc(OS(=O)(=O)O)cc1)C(=O)O
readout kind: Kd (µM)
Entry rule: numbers only, all in µM.

Given item MDYQVSSPI[sY]DIN[sY]YTSEPAQKINVKQ [Nt-CCR5 peptide (CCR5 residues 1-27), sulfated at Y10 and Y14] , the value recorded as its Kd is 16
